The origin of these recorded values is patent EP1377579B1.

# key: entry, value: IC50
# Test system: Colo-205
# protocol-text: In vitro proliferation assay (MTT), Colo-205
# Format: cell-based
# experimental-conditions: Homo sapiens, COLO 205; MTT assay; value (SD, n) where given; read-out: Colo-205 Colon (IC50 µM)
Counter-ions that a name gives are not always drawn.
Expressed in µM, but write only the number.

Solved entries (count: 3):
N[C@H]1CC[C@H](Nc2nc(NC3CCN(C(=O)Nc4ccccc4Br)CC3)c3ncn(C4CCCC4)c3n2)CC1 [compound 168, dihydrochloride]    0.16
N[C@H]1CC[C@H](Nc2nc(NC3CCN(C(=O)C4CCC4)CC3)c3ncn(C4CCCC4)c3n2)CC1 [compound 63, dihydrochloride]    0.16
N[C@H]1CC[C@H](Nc2nc(NC3CCN(C(=O)Nc4cccc(Cl)c4)CC3)c3ncn(C4CCCC4)c3n2)CC1 [compound 165, dihydrochloride]    0.02

Okay, next one:
Exercise: Enter measured IC50, system Colo-205, for the compound shown: N[C@H]1CC[C@H](Nc2nc(NC3CCN(C(=O)Nc4ccc(OC(F)(F)F)cc4)CC3)c3ncn(C4CCCC4)c3n2)CC1 [compound 175, dihydrochloride]
Key: 0.05

###

# measured-target: cdk4/cyclin D1 (Homo sapiens, UniProt P11802)
# Sequence (P11802 whole entry): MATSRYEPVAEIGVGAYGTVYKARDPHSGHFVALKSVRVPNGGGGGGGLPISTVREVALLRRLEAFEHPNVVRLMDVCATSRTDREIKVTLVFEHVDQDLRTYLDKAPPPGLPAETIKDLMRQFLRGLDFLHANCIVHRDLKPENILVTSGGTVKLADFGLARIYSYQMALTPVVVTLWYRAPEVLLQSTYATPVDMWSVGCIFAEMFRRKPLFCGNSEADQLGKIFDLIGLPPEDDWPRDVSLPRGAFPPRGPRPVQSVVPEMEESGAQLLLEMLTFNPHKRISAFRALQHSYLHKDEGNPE
# Sequence (P24385 whole entry partner): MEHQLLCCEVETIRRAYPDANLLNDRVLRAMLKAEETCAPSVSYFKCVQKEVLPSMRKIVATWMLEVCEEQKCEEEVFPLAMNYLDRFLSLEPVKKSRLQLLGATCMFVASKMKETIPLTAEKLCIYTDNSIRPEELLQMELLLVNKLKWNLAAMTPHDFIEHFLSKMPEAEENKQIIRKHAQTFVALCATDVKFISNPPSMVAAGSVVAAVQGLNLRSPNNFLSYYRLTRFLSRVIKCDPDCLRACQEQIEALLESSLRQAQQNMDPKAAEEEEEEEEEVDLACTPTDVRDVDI
# protocol-text: Cyclin-dependent kinase assay, cdk4/cyclin D1
# Type: biochemical
# experimental-conditions: cyclin D1/cdk4; GST-pRb substrate, 10 µM ATP
Structures can show the parent of a compound that is named as a salt.
parameter-measured: IC50 (nM)
Expressed in nM, but write only the number.

N#Cc1ccc(C(=O)N2CCC(Nc3nc(N[C@H]4CC[C@H](N)CC4)nc4c3ncn4C3CCCC3)CC2)cc1    629
Cl.Cl.N[C@H]1CC[C@H](Nc2nc(NC3CCN(C(=O)Oc4ccccc4)CC3)c3ncn(C4CCCC4)c3n2)CC1 [compound 85, dihydrochloride]    65

Okay, next one:
Exercise: Given N[C@H]1CC[C@H](Nc2nc(NC3CCN(C(=O)Nc4ccc(Cl)cc4C(F)(F)F)CC3)c3ncn(C4CCCC4)c3n2)CC1 [compound 178, dihydrochloride] , respond with its IC50.
Key: 879

###

# measured-target: cdk4/cyclin D1 (Homo sapiens)
# protocol-text: Cyclin-dependent kinase assay, cdk4/cyclin D1
# Assay type: biochemical
# experimental-conditions: cyclin D1/cdk4; GST-pRb substrate, 10 µM ATP
Counter-ions that a name gives are not always drawn.
parameter-measured: IC50 (nM)
Expressed in nM, but write only the number.

Exercise: Given CCCCCc1ccc(C(=O)N2CCC(Nc3nc(N[C@H]4CC[C@H](N)CC4)nc4c3ncn4C3CCCC3)CC2)cc1 [compound 22] , respond with its IC50.
Key: 383

Exercise: Given COc1cc(C(=O)N2CCC(Nc3nc(N[C@H]4CC[C@H](N)CC4)nc4c3ncn4C3CCCC3)CC2)cc(OC)c1OC [compound 16] , respond with its IC50.
Key: 372

Exercise: Given N[C@H]1CC[C@H](Nc2nc(NC3CCN(C(=O)Nc4ccccc4-c4ccccc4)CC3)c3ncn(C4CCCC4)c3n2)CC1 [compound 187, dihydrochloride] , respond with its IC50.
Key: 831

Exercise: Given N[C@H]1CC[C@H](Nc2nc(NC3CCN(C(=O)c4ccc(Cl)cc4Cl)CC3)c3ncn(C4CCCC4)c3n2)CC1 [compound 78] , respond with its IC50.
Key: 523

Exercise: Given CC(C)NC(=O)N1CCC(Nc2nc(N[C@H]3CC[C@H](N)CC3)nc3c2ncn3C2CCCC2)CC1 [compound 157, dihydrochloride] , respond with its IC50.
Key: 2040

Exercise: Given C[C@H](O)C(=O)N1CCC(Nc2nc(N[C@H]3CC[C@H](N)CC3)nc3c2ncn3C2CCCC2)CC1 [compound 47, dihydrochloride] , respond with its IC50.
Key: 361

Exercise: Given CCCC(=O)N1CCC(Nc2nc(N[C@H]3CC[C@H](N)CC3)nc3c2ncn3C2CCCC2)CC1 [compound 58, dihydrochloride] , respond with its IC50.
Key: 357

Exercise: Given CCC(=O)N1CCC(Nc2nc(N[C@H]3CC[C@H](N)CC3)nc3c2ncn3C2CCCC2)CC1 [compound 53, dihydrochloride] , respond with its IC50.
Key: 934

Exercise: Given COc1cc(NC(=O)N2CCC(Nc3nc(N[C@H]4CC[C@H](N)CC4)nc4c3ncn4C3CCCC3)CC2)cc(OC)c1OC [compound 198, dihydrochloride] , respond with its IC50.
Key: 7

Exercise: Given N[C@H]1CC[C@H](Nc2nc(NC3CCN(S(=O)(=O)c4ccc(Br)cc4)CC3)c3ncn(C4CCCC4)c3n2)CC1 [compound 114, dihydrochloride] , respond with its IC50.
Key: 80

Exercise: Given COc1ccc(S(=O)(=O)N2CCC(Nc3nc(N[C@H]4CC[C@H](N)CC4)nc4c3ncn4C3CCCC3)CC2)cc1 [compound 142, dihydrochloride] , respond with its IC50.
Key: 47

Exercise: Given N[C@H]1CC[C@H](Nc2nc(NC3CCN(C(=O)Nc4cccc(F)c4)CC3)c3ncn(C4CCCC4)c3n2)CC1 [compound 152, dihydrochloride] , respond with its IC50.
Key: 753

Exercise: Given COc1ccccc1C(=O)N1CCC(Nc2nc(N[C@H]3CC[C@H](N)CC3)nc3c2ncn3C2CCCC2)CC1 [compound 7, dihydrochloride] , respond with its IC50.
Key: 96

###

# measured-target: cdk4/cyclin D1 (Homo sapiens, UniProt P11802)
# protocol-text: Cyclin-dependent kinase assay, cdk4/cyclin D1
# Type: biochemical
# experimental-conditions: cyclin D1/cdk4; GST-pRb substrate, 10 µM ATP
Where a name gives a salt, the structure may show the parent alone.
# key: entry, value: IC50
Expressed in nM, but write only the number.

Solved entries (count: 2):
CCOc1ccccc1NC(=O)N1CCC(Nc2nc(N[C@H]3CC[C@H](N)CC3)nc3c2ncn3C2CCCC2)CC1 [compound 171, dihydrochloride]    963
N[C@H]1CC[C@H](Nc2nc(NC3CCN(C(=O)c4cccs4)CC3)c3ncn(C4CCCC4)c3n2)CC1 [compound 10, dihydrochloride]    761

Okay, next one:
Exercise: Given N[C@H]1CC[C@H](Nc2nc(NC3CCN(C(=O)c4cccc(C(F)(F)F)c4)CC3)c3ncn(C4CCCC4)c3n2)CC1 [compound 3, dihydrochloride] , respond with its IC50.
Key: 1120

###

# measured-target: cdk4/cyclin D1 (Homo sapiens)
# protocol-text: Cyclin-dependent kinase assay, cdk4/cyclin D1
# Format: biochemical
# experimental-conditions: cyclin D1/cdk4; GST-pRb substrate, 10 µM ATP
Counter-ions that a name gives are not always drawn.
parameter-measured: pIC50
Scale for pIC50: -log10 of concentration given in mol/L; no unit attached.

N[C@H]1CC[C@H](Nc2nc(NC3CCN(C(=O)Cc4ccc(F)cc4)CC3)c3ncn(C4CCCC4)c3n2)CC1 [compound 48, dihydrochloride]    6.30

Exercise: Given N[C@H]1CC[C@H](Nc2nc(NC3CCN(C(=O)CCc4ccccc4)CC3)c3ncn(C4CCCC4)c3n2)CC1 [compound 33, dihydrochloride] , respond with its pIC50.
Key: 6.37

Exercise: Given N[C@H]1CC[C@H](Nc2nc(NC3CCN(C(=O)Nc4c(F)cccc4C(F)(F)F)CC3)c3ncn(C4CCCC4)c3n2)CC1 [compound 201, dihydrochloride] , respond with its pIC50.
Key: 6.01

Exercise: Given N[C@H]1CC[C@H](Nc2nc(NC3CCN(C(=O)c4cccc(Br)c4)CC3)c3ncn(C4CCCC4)c3n2)CC1 [compound 71] , respond with its pIC50.
Key: 6.16

Exercise: Given CC(C)(C)c1ccc(C(=O)N2CCC(Nc3nc(N[C@H]4CC[C@H](N)CC4)nc4c3ncn4C3CCCC3)CC2)cc1 [compound 20] , respond with its pIC50.
Key: 6.17

Exercise: Given CCOC(=O)c1ccccc1NC(=O)N1CCC(Nc2nc(N[C@H]3CC[C@H](N)CC3)nc3c2ncn3C2CCCC2)CC1 [compound 199, dihydrochloride] , respond with its pIC50.
Key: 6.17

Exercise: Given N[C@H]1CC[C@H](Nc2nc(NC3CCN(C(=O)c4cc(C(F)(F)F)ccc4F)CC3)c3ncn(C4CCCC4)c3n2)CC1 [compound 69] , respond with its pIC50.
Key: 6.07

Exercise: Given CC(=O)Nc1nc(C)c(S(=O)(=O)N2CCC(Nc3nc(N[C@H]4CC[C@H](N)CC4)nc4c3ncn4C3CCCC3)CC2)s1 [compound 113, dihydrochloride] , respond with its pIC50.
Key: 7.41

###

# measured-target: cdk2/cyclin E (Homo sapiens, UniProt P24941)
# protocol-text: Cyclin-dependent kinase assay, cdk2/cyclin E
# experimental-conditions: CDK2 IC50, nM, GST-pRb substrate, 10 µM ATP
Counter-ions that a name gives are not always drawn.
So basically, if IC50 comes in under 70 nM it's true, and if it's 70 nM or more it's false.

Example entries and their recorded answers appear below.
CCCCOc1ccc(C(=O)N2CCC(Nc3nc(N[C@H]4CC[C@H](N)CC4)nc4c3ncn4C3CCCC3)CC2)cc1    false
N[C@H]1CC[C@H](Nc2nc(NC3CCN(S(=O)(=O)c4c(Cl)cccc4Cl)CC3)c3ncn(C4CCCC4)c3n2)CC1 [compound 121, dihydrochloride]    true
N[C@H]1CC[C@H](Nc2nc(NC3CCN(C(=O)/C=C/c4ccccc4)CC3)c3ncn(C4CCCC4)c3n2)CC1 [compound 62, dihydrochloride]    true
N[C@H]1CC[C@H](Nc2nc(NC3CCN(C(=O)c4ccc(F)cc4)CC3)c3ncn(C4CCCC4)c3n2)CC1 [compound 1, dihydrochloride]    false
N[C@H]1CC[C@H](Nc2nc(NC3CCN(C(=O)Nc4ccccc4Br)CC3)c3ncn(C4CCCC4)c3n2)CC1 [compound 168, dihydrochloride]    true

Exercise: Below 70 nM on IC50? Entry N[C@H]1CC[C@H](Nc2nc(NC3CCN(S(=O)(=O)c4ccc(Cl)cc4)CC3)c3ncn(C4CCCC4)c3n2)CC1 [compound 108, dihydrochloride]
Key: true
